Origin of values: patent US10711006B2

System: human lung cancer cell (A549)
Assay: In-vitro tumor cell proliferation inhibition (CCK-8), A549
Conditions: A549, 72 h, read-out: Tumor cell proliferation inhibitory activity (IC50, μM) A549
# note: exactly 3 µM is not below, so it is class 0; use class 1 for IC50 strictly under it

{"Molecule": "C=CC(=O)N1CCC[C@@H](n2nc(-c3ccc(Oc4ccccc4F)nc3)c3c(N)ncnc32)C1 [Compound 15d]", "Assigned Class": "class 0"}
{"Molecule": "C=CC(=O)N1CCC[C@@H](n2nc(-c3ccc(Oc4ccccc4)nc3F)c3c(N)ncnc32)C1 [Compound 17a]", "Assigned Class": "class 1"}

### Prompt Lab note: confirm whether the reported IC50 for this molecule is below 3 µM, equality not counting. molecule: C=CC(=O)N1CCC[C@@H](n2nc(-c3ccc(Oc4ccc(C)cc4)nc3)c3c(N)ncnc32)C1 [Compound 15i]
### Response class 0

### Prompt Lab note: confirm whether the reported IC50 for this molecule is below 3 µM, equality not counting. molecule: C=CC(=O)N1CCC[C@@H](n2nc(-c3ccc(Oc4ccc(F)cc4)nc3)c3c(N)ncnc32)C1 [Compound 15b]
### Response class 1

### Prompt Lab note: confirm whether the reported IC50 for this molecule is below 3 µM, equality not counting. molecule: C=CC(=O)N1CC[C@@H](n2nc(-c3ccc(Oc4cccc(F)c4F)nc3F)c3c(N)ncnc32)C1 [Compound 24e]
### Response class 1

### Prompt Lab note: confirm whether the reported IC50 for this molecule is below 3 µM, equality not counting. molecule: C=CC(=O)N1CCC[C@@H](n2nc(-c3cnc(Oc4ccccc4)nc3)c3c(N)ncnc32)C1
### Response class 0

### Prompt Lab note: confirm whether the reported IC50 for this molecule is below 3 µM, equality not counting. molecule: CC#CC(=O)N1CC[C@@H](n2nc(-c3ccc(Oc4ccccc4)nc3)c3c(N)ncnc32)C1 [Compound 25a]
### Response class 0
